Entries and their pIC50
testTarget: wild-type FLT3 receptor (Homo sapiens, UniProt P36888)
Sequence (P36888 27-993): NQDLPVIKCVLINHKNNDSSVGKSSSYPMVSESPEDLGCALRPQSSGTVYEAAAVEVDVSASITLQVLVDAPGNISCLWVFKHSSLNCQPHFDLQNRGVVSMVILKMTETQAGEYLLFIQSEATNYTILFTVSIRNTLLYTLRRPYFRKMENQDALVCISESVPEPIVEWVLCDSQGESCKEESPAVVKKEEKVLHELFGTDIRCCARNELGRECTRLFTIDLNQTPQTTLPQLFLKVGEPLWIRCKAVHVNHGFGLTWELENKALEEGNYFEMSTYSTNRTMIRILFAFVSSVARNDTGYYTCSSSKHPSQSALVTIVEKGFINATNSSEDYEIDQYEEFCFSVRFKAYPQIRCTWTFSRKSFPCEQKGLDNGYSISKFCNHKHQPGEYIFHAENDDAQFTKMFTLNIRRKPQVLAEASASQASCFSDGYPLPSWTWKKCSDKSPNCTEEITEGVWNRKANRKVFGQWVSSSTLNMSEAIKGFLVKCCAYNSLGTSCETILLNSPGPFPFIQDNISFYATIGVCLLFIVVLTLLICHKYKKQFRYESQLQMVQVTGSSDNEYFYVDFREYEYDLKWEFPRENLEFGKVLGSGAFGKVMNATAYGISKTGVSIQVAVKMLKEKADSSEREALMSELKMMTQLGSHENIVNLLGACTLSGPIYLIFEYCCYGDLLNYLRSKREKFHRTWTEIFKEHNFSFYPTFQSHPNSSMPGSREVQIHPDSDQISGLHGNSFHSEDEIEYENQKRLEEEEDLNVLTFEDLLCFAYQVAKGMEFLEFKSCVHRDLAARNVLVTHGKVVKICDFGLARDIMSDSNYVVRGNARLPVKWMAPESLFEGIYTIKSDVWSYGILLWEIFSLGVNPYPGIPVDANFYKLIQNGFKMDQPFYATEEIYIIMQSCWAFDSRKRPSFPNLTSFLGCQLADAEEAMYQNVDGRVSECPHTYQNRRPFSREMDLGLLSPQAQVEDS
measurementDescription: Cell-based FLT3 receptor ELISA (FLT ligand-induced phosphorylation in Baf3 FLT3 cells)
setupConditions: 100 ng/mL Flt ligand, uncertainty ±20%
// returns pIC50 (minus log10 of molar concentration), number only

The following molecules have reported results that may help.
Identify the measured pIC50 of CN(C)[C@@H]1CCN(c2ccc3c(C4CCN(C(=O)Nc5ccc(N6CCOCC6)cc5)CC4)ncnc3c2)C1 for wild-type FLT3 receptor (Homo sapiens, UniProt P36888).
7.72

Identify the measured pIC50 of O=C(Nc1ccc(N2CCCC2)cc1)N1CCC(c2ncnc3cc(N4CCN(c5ncccn5)CC4)ccc23)CC1 for wild-type FLT3 receptor (Homo sapiens, UniProt P36888).
8.52

Identify the measured pIC50 of O=C(Nc1ccc(N2CCCC2)cc1)N1CCC(c2ncnc3cc(OCCCN4CCC[C@H]4CO)ccc23)CC1 for wild-type FLT3 receptor (Homo sapiens, UniProt P36888).
7.23

---
Identify the measured pIC50 of COc1cc2ncnc(C3CCN(C(=O)Nc4ccc(N(C)C)cc4)CC3)c2cc1OC for wild-type FLT3 receptor (Homo sapiens, UniProt P36888).
6.96

Every entry's value here was drawn from patent US20070004660A1.
